melting point: recorded values

INSERT INTO results (molecule, measured_metric, result) VALUES
  ('COc1ccccc1CC(=O)C1=C(O)C(=O)N(c2nc3c(Cl)cccc3s2)C1c1ccc(Cl)cc1 (stereo not drawn) [Compound 489]', 'melting point', '176 to 178 °C'),
  ('Cc1ccc(C(=O)C2=C(O)C(=O)N(c3nc4cccnc4s3)C2c2ccccc2F)o1 (stereo not drawn) [Compound 245]', 'melting point', '227 to 229 °C'),
  ('CCOC(=O)CCC(=O)C1=C(O)C(=O)N(c2nc3ccc(F)cc3s2)C1c1ccc(Cl)cc1 (stereo not drawn) [Compound 498]', 'melting point', '219 to 220 °C');

Data point: Cc1ccc(C(=O)C2=C(O)C(=O)N(c3nc4ccc(Cl)cc4s3)C2c2ccc(Oc3ccccc3)cc2)o1 (stereo not drawn) [Compound 467] ; melting point = 238 to 239 °C

Data point: CCc1ccc2nc(N3C(=O)C(O)=C(C(=O)c4ccc(C)o4)C3c3ccc(C(F)(F)F)cc3)sc2c1 (stereo not drawn) [Compound 137] ; melting point = 138 to 140 °C

Data point: CCOC(=O)CCC(=O)C1=C(O)C(=O)N(c2nc3c(Cl)cccc3s2)C1c1ccccc1F (stereo not drawn) [Compound 499] ; melting point = 180 to 182 °C
